The following are reported MIC results, target or system Escherichia coli CCUG-59353.

molecule	censoring.operator	MIC (µg/mL)
CN1CC2CN(C(=O)Nc3cc(F)cc(F)c3)CC(C1)C2(O)c1ccc(-c2ccc(CN)cc2C#N)cc1 (stereo not shown)	=	2
C[C@H]1COc2c(N3CCN(C)CC3)c(F)cc3c(=O)c(C(=O)O)cn1c23 [Levofloxin, reference compound]	>	2
CN1CC2CN(C(=O)Nc3cc(F)cc(F)c3)CC(C1)C2(O)c1ccc(-c2ccc(CN)cc2C#N)cn1 (stereo not shown)	=	4
CNCc1ccc(-c2ccc(C3(O)C4CN(C)CC3CN(C(=O)Nc3cc(F)cc(F)c3)C4)nc2)c(C#N)c1 (stereo not shown)	=	1.78

====

Below is a list of entries, each paired with its recorded MIC value.
System: Pseudomonas aeruginosa ATCC-BAA-47 (PAO1)
measurement.notes: MIC (50% NHS)
Type: cell-based

molecule	MIC (µg/mL)
C[C@H]1COc2c(N3CCN(C)CC3)c(F)cc3c(=O)c(C(=O)O)cn1c23 [Levofloxin, reference compound]	1
CN1CC2CN(C(=O)Nc3cc(F)cc(F)c3)CC(C1)C2(O)c1ccc(-c2ccc(CN)cc2C#N)cn1 (stereo not shown) [Compound 24]	2
CNCc1ccc(-c2ccc(C3(O)C4CN(C)CC3CN(C(=O)Nc3cc(F)cc(F)c3)C4)nc2)c(C#N)c1 (stereo not shown) [Compound 17]	1.78
CN1CC2CN(C(=O)Nc3cc(F)cc(F)c3)CC(C1)C2(O)c1ccc(-c2ccc(CN)cc2C#N)cc1 (stereo not shown) [Compound 23]	2

====

The following are reported MIC results, target or system Staphylococcus aureus ATCC-29213.
parameter.measured: MIC (µg/mL)

molecule	target.system	censoring.operator	readout.value
CN1CC2CN(C(=O)Nc3cc(F)cc(F)c3)CC(C1)C2(O)c1ccc(-c2ccc(CN)cc2C#N)cn1 (stereo not shown)	Staphylococcus aureus ATCC-29213	=	0.25
CN1CC2CN(C(=O)Nc3cc(F)cc(F)c3)CC(C1)C2(O)c1ccc(-c2ccc(CN)cc2C#N)cc1 (stereo not shown)	Staphylococcus aureus ATCC-29213	=	0.13
C[C@H]1COc2c(N3CCN(C)CC3)c(F)cc3c(=O)c(C(=O)O)cn1c23 [Levofloxin, reference compound]	Staphylococcus aureus ATCC-29213	=	0.5
CNCc1ccc(-c2ccc(C3(O)C4CN(C)CC3CN(C(=O)Nc3cc(F)cc(F)c3)C4)nc2)c(C#N)c1 (stereo not shown)	Staphylococcus aureus ATCC-29213	≤	0.11

====

Test system: Enterococcus faecalis ATCC-29212

compound	MIC
CNCc1ccc(-c2ccc(C3(O)C4CN(C)CC3CN(C(=O)Nc3cc(F)cc(F)c3)C4)nc2)c(C#N)c1 (stereo not shown)	0.45 µg/mL
C[C@H]1COc2c(N3CCN(C)CC3)c(F)cc3c(=O)c(C(=O)O)cn1c23 [Levofloxin, reference compound]	2 µg/mL
CN1CC2CN(C(=O)Nc3cc(F)cc(F)c3)CC(C1)C2(O)c1ccc(-c2ccc(CN)cc2C#N)cn1 (stereo not shown)	1 µg/mL
CN1CC2CN(C(=O)Nc3cc(F)cc(F)c3)CC(C1)C2(O)c1ccc(-c2ccc(CN)cc2C#N)cc1 (stereo not shown)	0.5 µg/mL

====

Below is a list of entries, each paired with its recorded half-life value.
measurement.notes: in vivo
Parameters: species or system mice
study.conditions: mouse, iv, 10 mg/kg, T1/2
parameter.measured: half-life (h)

molecule	unit.of.measure	readout.value
CN1CC2CN(C(=O)Nc3cc(F)cc(F)c3)CC(C1)C2(O)c1ccc(-c2ccc(CN)cc2C#N)cc1 (stereo not drawn)	h	22
CNCc1ccc(-c2ccc(C3(O)C4CN(C)CC3CN(C(=O)Nc3cc(F)cc(F)c3)C4)nc2)c(C#N)c1 (stereo not drawn)	h	34
CN1CC2CN(C(=O)Nc3cc(F)cc(F)c3)CC(C1)C2(O)c1ccc(-c2ccc(CN)cc2C#N)cn1 (stereo not drawn)	h	22.5

====

Tested on: Staphylococcus aureus NRS-384

molecule	MIC [µg/mL]
C[C@H]1COc2c(N3CCN(C)CC3)c(F)cc3c(=O)c(C(=O)O)cn1c23 [Levofloxin, reference compound]	1
CN1CC2CN(C(=O)Nc3cc(F)cc(F)c3)CC(C1)C2(O)c1ccc(-c2ccc(CN)cc2C#N)cn1 (stereo not shown)	0.5
CN1CC2CN(C(=O)Nc3cc(F)cc(F)c3)CC(C1)C2(O)c1ccc(-c2ccc(CN)cc2C#N)cc1 (stereo not shown)	0.13
CNCc1ccc(-c2ccc(C3(O)C4CN(C)CC3CN(C(=O)Nc3cc(F)cc(F)c3)C4)nc2)c(C#N)c1 (stereo not shown)	0.22

====

target.system: hERG Potassium Ion Channel (Homo sapiens)
Sequence (Q12809 whole entry): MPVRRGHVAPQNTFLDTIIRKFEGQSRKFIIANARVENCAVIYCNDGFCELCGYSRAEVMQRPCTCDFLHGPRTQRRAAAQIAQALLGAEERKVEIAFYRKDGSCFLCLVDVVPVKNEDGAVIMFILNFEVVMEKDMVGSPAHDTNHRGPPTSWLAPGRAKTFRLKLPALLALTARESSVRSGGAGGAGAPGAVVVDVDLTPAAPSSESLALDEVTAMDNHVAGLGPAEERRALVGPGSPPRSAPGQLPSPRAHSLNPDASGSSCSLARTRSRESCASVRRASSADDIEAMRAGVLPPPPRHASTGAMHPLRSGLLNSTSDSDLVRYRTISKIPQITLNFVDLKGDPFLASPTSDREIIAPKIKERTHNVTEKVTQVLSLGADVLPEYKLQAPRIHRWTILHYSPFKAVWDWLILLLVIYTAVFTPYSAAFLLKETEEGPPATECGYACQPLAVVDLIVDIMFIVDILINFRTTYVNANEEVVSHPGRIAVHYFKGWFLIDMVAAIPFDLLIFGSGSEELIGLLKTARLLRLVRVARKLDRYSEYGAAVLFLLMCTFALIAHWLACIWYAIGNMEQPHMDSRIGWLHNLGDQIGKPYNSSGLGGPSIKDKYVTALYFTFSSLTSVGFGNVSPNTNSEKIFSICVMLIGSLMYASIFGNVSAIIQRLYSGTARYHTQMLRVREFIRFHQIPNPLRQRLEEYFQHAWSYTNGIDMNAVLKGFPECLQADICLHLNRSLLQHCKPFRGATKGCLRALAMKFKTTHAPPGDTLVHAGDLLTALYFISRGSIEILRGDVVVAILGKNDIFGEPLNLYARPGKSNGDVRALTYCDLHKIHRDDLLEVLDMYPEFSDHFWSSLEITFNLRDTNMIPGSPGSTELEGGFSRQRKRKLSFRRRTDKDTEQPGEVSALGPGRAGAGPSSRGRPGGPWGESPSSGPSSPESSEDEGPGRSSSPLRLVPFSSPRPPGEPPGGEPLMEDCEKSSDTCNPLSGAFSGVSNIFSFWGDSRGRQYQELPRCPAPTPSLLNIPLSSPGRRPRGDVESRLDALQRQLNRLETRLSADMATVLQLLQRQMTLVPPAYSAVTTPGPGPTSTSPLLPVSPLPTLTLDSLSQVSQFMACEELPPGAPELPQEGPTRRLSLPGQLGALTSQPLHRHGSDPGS
measurement.notes: hERG channel block, automated planar clamp (QPatch), CHO cell line
study.conditions: hERG channel in stable CHO cell line
pIC50: −log10 of the molar value.

molecule	target.system	pIC50
CN1CC2CN(C(=O)Nc3cc(F)cc(F)c3)CC(C1)C2(O)c1ccc(-c2ccc(CN)cc2C#N)cn1 (stereo not drawn)	hERG Potassium Ion Channel (Homo sapiens)	< 4.52
CNCc1ccc(-c2ccc(C3(O)C4CN(C)CC3CN(C(=O)Nc3cc(F)cc(F)c3)C4)nc2)c(C#N)c1 (stereo not drawn)	hERG Potassium Ion Channel (Homo sapiens)	< 4.52
CN1CC2CN(C(=O)Nc3cc(F)cc(F)c3)CC(C1)C2(O)c1ccc(-c2ccc(CN)cc2C#N)cc1 (stereo not drawn)	hERG Potassium Ion Channel (Homo sapiens)	< 4.52
